Data origin: ChEMBL document CHEMBL1201862

Recorded IC50 for the following compounds
- tested system: Genome polyprotein (dengue virus type 2)
- Sequence (P29990 2492-3391 limits assumed): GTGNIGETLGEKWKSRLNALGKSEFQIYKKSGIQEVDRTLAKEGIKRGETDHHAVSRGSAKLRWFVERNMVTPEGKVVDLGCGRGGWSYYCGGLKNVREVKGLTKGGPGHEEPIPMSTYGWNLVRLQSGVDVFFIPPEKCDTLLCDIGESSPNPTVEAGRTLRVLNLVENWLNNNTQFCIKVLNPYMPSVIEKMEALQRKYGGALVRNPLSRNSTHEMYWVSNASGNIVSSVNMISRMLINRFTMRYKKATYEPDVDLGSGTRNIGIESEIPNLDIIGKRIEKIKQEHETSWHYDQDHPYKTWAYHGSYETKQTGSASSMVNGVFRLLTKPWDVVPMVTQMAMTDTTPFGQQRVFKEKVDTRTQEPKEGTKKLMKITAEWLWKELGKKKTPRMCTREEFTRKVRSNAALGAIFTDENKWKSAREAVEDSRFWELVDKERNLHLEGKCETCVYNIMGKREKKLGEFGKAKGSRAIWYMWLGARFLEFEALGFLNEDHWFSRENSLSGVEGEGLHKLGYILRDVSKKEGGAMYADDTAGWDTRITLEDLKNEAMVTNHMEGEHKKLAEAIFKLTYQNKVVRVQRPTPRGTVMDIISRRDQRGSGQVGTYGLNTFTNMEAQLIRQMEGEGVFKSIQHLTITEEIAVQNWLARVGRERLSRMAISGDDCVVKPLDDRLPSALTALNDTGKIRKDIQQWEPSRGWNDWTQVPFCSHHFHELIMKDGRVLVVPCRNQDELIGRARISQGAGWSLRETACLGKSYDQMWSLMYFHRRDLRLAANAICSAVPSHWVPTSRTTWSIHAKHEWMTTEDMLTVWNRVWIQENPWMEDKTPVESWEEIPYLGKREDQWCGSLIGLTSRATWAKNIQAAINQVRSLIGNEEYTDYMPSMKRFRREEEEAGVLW
- method description: Dengue-2 NS5 methyltransferase inhibitors, primary screen, biochemical, confirmation dose response (AID 588689)
- Assay type: functional
Activity calls are given as the source filed them.

>>> df
                                   compound  measured_metric    endpoint_value
0  NNc1cc([N+](=O)[O-])cc2c1c(=O)n(Cc1ccccc1)[s+]2[O-] (configuration not stated)             IC50  63.4 µM (active)
1  O=C1C(=Cc2cccn2-c2ccc(O)cc2)C(=O)c2ccccc21             IC50  10.1 µM (active)
2  O=C(O)c1[nH]c2ccccc2c1C(c1ccccc1)c1c(C(=O)O)[nH]c2ccccc12             IC50  16.7 µM (active)
3  CCCOc1ccc(C(=O)C2=C(O)C(=O)N(c3ccccn3)C2c2ccc(OC)cc2)cc1C (configuration not stated)             IC50  74.3 µM (active)
4  CCc1ccc(S(=O)(=O)/N=C2\C=C(NS(=O)(=O)c3ccccc3)C(=O)c3ccccc32)cc1             IC50  22.9 µM (active)
5  CC1=C/C(=C(\c2cc(C)c(O)c(Br)c2)c2ccccc2S(=O)(=O)O)C=C(Br)C1=O             IC50  53.2 µM (active)

Here is another compound to look at.
Please supply the value of reported IC50 for the item Cc1cc(C(=O)N/N=C/c2ccc(O)c(O)c2O)c(C)n1-c1ccccc1
41.9 µM (active)

====

- tested system: G-protein coupled receptor 55 (Homo sapiens)
- Sequence (Q9Y2T6 whole entry): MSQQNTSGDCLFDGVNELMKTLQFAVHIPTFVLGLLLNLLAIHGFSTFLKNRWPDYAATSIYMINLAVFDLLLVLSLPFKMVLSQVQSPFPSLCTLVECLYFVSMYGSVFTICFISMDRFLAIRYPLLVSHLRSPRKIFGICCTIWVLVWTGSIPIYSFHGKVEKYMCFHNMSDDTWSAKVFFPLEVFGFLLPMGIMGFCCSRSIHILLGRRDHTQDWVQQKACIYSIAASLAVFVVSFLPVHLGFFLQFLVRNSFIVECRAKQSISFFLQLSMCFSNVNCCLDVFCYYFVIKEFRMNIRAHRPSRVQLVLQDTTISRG
- method description: GPR55 agonists via beta-arrestin recruitment, primary screen, imaging, U2OS cells, beta-arrestin-GFP redistribution (AID 1961)
- Format: functional
Calls of active or inactive are those of the source.
EC50: recorded values

Would you please look over these solved cases?
In [3]: df
Out[3]:
                           substance_smiles      endpoint_value
0  Cc1cc(C)c2sc(N(CCN(C)C)C(=O)c3cc(Cl)sc3Cl)nc2c1  26.2 µM (inactive)
1       COc1ccccc1-n1cnc2cc(NCc3cccs3)ccc21    2.87 µM (active)
2  CCCCC(=O)Nc1sc2c(c1C(=O)OCC)CCC(C=O)=C2Cl  > 32 µM (inactive)
3  Cc1ccc(NS(=O)(=O)c2cc([N+](=O)[O-])ccc2N/N=C/c2sc(N3CCOCC3)nc2-c2ccccc2)c(C)c1   < 0.5 µM (active)

Moving on to the next compound.
Complete the entry with EC50 for CN(C)CCCN(C(=O)c1cc(Cl)sc1Cl)c1nc2cc3c(cc2s1)OCO3
> 32 µM (inactive)

====

- tested system: Heat shock factor protein 1 (Mus musculus, UniProt P38532)
- Sequence (P38532 whole entry): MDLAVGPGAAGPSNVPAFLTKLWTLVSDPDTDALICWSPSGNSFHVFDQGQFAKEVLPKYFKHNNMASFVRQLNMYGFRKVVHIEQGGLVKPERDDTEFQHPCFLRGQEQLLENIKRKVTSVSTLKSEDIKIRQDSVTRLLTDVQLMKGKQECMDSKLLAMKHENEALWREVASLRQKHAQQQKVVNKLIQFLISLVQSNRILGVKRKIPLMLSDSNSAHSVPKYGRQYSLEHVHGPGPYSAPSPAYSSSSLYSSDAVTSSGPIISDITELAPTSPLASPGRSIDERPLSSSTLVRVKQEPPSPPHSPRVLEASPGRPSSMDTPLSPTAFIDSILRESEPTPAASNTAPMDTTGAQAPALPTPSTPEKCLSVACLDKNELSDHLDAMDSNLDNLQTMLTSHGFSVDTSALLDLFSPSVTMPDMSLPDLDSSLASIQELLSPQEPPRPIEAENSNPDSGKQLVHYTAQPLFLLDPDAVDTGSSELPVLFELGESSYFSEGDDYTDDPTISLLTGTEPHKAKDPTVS
- method description: inhibition of MG132-induced HSE-luciferase signal, confirmation, cell-based, NIH3T3, luminescence, dose retest (AID 2382);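 also: NIH3T3 fibroblasts with HSF1-driven luciferase reporter stressed by proteasome inhibitor MG132; luminescence from HSF1-driven luciferase expression after 8 hours of MG132 stress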
- Assay type: functional
Calls of active or inactive are those of the source.
measured metric: EC50

>>> print(df.to_string())
                           substance_smiles                             tested_system  measured_metric         endpoint_value
0  O=C(Nc1ccc(N2CCN(c3ccc(O)cc3)CC2)cc1)Oc1ccccc1  Heat shock factor protein 1 (Mus musculus, UniProt P38532)             EC50  > 195 µM (not active)
1  CCCC(=O)Nc1cccc(NC(=O)c2cccc([N+](=O)[O-])c2C)c1  Heat shock factor protein 1 (Mus musculus, UniProt P38532)             EC50       20.5 µM (active)

State recorded EC50 with Heat shock factor protein 1 (Mus musculus, UniProt P38532), entry CC(=O)/C(=N\Nc1ccc(Cl)cc1)Sc1nnc(-c2ccccc2)n1-c1ccccc1 , no comment.
> 195 µM (not active)

Given Cc1cc(C(C)(C)C)oc1C(=O)N(CC(=O)NC1CCCC1)c1c(C)cccc1C , report its EC50 on Heat shock factor protein 1 (Mus musculus, UniProt P38532).
> 195 µM (not active)

Jot down EC50 (Heat shock factor protein 1 (Mus musculus, UniProt P38532)) of O=S(=O)(c1cc(Cl)ccc1Cl)N1CCC2(CC1)OCCO2 .
> 195 µM (not active)
